Protocol Notes: Acute toxicity in rat
Format: organism-based
Condition Label: in vivo
Attribute Measured: LD50 (mg/kg)
Number in mg/kg, nothing else.

See these solved cases before continuing.
State, in one line, measured LD50 of `COc1ccc(/C=C/C(=O)c2ccc(NC(=O)c3cc(Cl)ccc3OC)cc2)cc1`
2230

State, in one line, measured LD50 of COc1ccc(Cl)cc1C(=O)Nc1ccc(C2=NN(c3ccccc3)C(c3ccccc3[N+](=O)[O-])C2)cc1 (centres undefined)
2390

State, in one line, measured LD50 of COc1ccc(Cl)cc1C(=O)Nc1ccc(C2=NN(C)C(c3ccc([N+](=O)[O-])cc3)C2)cc1 (centres undefined)
2540

State, in one line, measured LD50 of COc1ccc(Cl)cc1C(=O)Nc1ccc(C2=NN(C)C(c3ccccc3[N+](=O)[O-])C2)cc1 (centres undefined)
2350

State, in one line, measured LD50 of `COc1ccc(Cl)cc1C(=O)Nc1ccc(C(=O)/C=C/c2ccccc2[N+](=O)[O-])cc1`
2400

State, in one line, measured LD50 of COc1ccc(C2CC(c3ccc(NC(=O)c4cc(Cl)ccc4OC)cc3)=NN2C)cc1 (centres undefined)
2390

New cases:
State, in one line, measured LD50 of COc1ccc(C2CC(c3ccc(NC(=O)c4cc(Cl)ccc4OC)cc3)=NN2c2ccccc2)cc1 (centres undefined)
2390

State, in one line, measured LD50 of COc1ccc(Cl)cc1C(=O)Nc1ccc(C2=NN(c3ccccc3)C(c3ccc([N+](=O)[O-])cc3)C2)cc1 (centres undefined)
2380

State, in one line, measured LD50 of `COc1ccc(Cl)cc1C(=O)Nc1ccc(C(=O)/C=C/c2ccc([N+](=O)[O-])cc2)cc1`
1830
